# test: STM_H9_OrnithineISnorm_perc: Stemina devTOX quickPredict H9 human embryonic stem cell (hESC)-based Assay for Ornithine (ORN) Metabolite Biomarker, Normalized (AID 2283712);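 also: ornithine released into spent medium during last day measured by mass spectrometry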
The source made the active and inactive calls. The calls were made as follows: active = hit-call score of the fitted dose curve at least 0.9, where 1 is the maximum; inactive = score below 0.9.
Returns: one label drawn from active, inactive

## Input # lookup: test call for CC(=O)S[C@H](C(=O)N[C@H]1Cc2ccccc2[C@H]2CCC[C@@H](C(=O)O)N2C1=O)C(C)C
## Output inactive

## Input # lookup: test call for Nc1nc(=S)c2[nH]cnc2[nH]1
## Output active

## Input # lookup: test call for NC(=Nc1ccccc1)Nc1ccccc1
## Output inactive

## Input # lookup: test call for CCc1nc(N)nc(N)c1-c1ccc(Cl)cc1
## Output active

## Input # lookup: test call for O=C(Oc1ccccc1)c1cccc(C(=O)Oc2ccccc2)c1
## Output inactive

## Input # lookup: test call for O=C1NC(=O)C(c2ccccc2)(c2ccccc2)N1
## Output inactive

Measured values drawn from PubChem BioAssay (EPA / NIEHS) for this set.
